- TARGET_OR_TEST_SYSTEM: BRD4 (Homo sapiens, UniProt O60885)
- TEST_NAME: Time Resolved Fluorescence Resonance Energy Transfer (TR-FRET) binding assay, BRD4
- ASSAY_CONDITIONS: one of the FRET assays described; read-out: FRET BRD4 IC50
QUANTITY: IC50

Enquiry: // returns reported IC50 for input [2H]C([2H])([2H])c1nnn(C)c1-c1cnc2c3cc(F)c(C(C)(O)C4CC4)cc3n([C@H](c3ccccc3)C3CCOCC3)c2c1 (stereo partly shown) [Example 446]
Return: < 5 nM

Enquiry: Try Cc1noc(C)c1-c1cnc2c3ccc(C(C)(C)O)cc3n([C@@H](CCC(F)(F)F)c3cscn3)c2c1 [Example 20] next.
Return: < 25 nM

Enquiry: Try Cc1noc(C)c1-c1cnc2c3c(F)cc(C(C)(C)O)cc3n([C@H](c3ccccc3)C3CCOCC3)c2c1 [Example 370] next.
Return: < 5 nM

Enquiry: Try Cc1noc(C)c1-c1cnc2c3ccc(S(C)(=O)=O)cc3n(C(CCC(F)(F)F)c3ccccc3)c2c1 (single isomer, unassigned) [Example 38] next.
Return: < 25 nM

Enquiry: Try Cc1noc(C)c1-c1cnc2c3ccc(C(C)(C)O)cc3n([C@H](CCC(F)(F)F)c3ccccn3)c2c1 [Example 24] next.
Return: < 1500 nM

Enquiry: Try Cc1noc(C)c1-c1cnc2c3ccc(C(C)(C)O)cc3n([C@@H](c3ccc(F)cc3)C3CCOC(C)(C)C3)c2c1 (stereo partly shown) [Example 18] next.
Return: < 1500 nM

Enquiry: Try [2H]C([2H])([2H])Oc1nnn(C)c1-c1cnc2c3ccc(C(C)(C)O)cc3n([C@H](c3ccccc3)C3CCOCC3)c2c1 [Example 378] next.
Return: < 5 nM

Enquiry: Try Cc1nnn(C)c1-c1cnc2c3ccc(CS(C)(=O)=O)cc3n([C@@H](c3ncccc3F)C3CCOCC3)c2c1 [Example 333] next.
Return: < 5 nM

Enquiry: Try Cc1sc(=O)n(C)c1-c1cnc2c3ccc(C(C)(C)O)cc3n(C(c3ccccc3)C3CCOCC3)c2c1 (single isomer, unassigned) [Example 170] next.
Return: < 1500 nM

Enquiry: Try Cc1nnn(C)c1-c1cnc2c3cc(C(C)(C)O)ccc3n([C@H](c3ccc(F)cc3)C3CCOCC3)c2c1 [Example 176] next.
Return: < 5 nM

Enquiry: Try Cc1nnn(C)c1-c1cnc2c3cccc(S(C)(=O)=O)c3n([C@H](c3ccccc3)C3CCOCC3)c2c1 [Example 376] next.
Return: < 5 nM

Enquiry: Try [2H]C([2H])([2H])c1nnn(C)c1-c1cnc2c3c(F)cc(S(C)(=O)=O)cc3n([C@H](c3ccc(F)cc3)C3CCOCC3)c2c1 [Example 201] next.
Return: < 5 nM

Enquiry: Try Cc1nnn(C)c1-c1cnc2c3ccc(C(C)(C)O)cc3n([C@@H](CCC(F)(F)F)c3ccccc3)c2c1 [Example 57] next.
Return: < 5 nM

Enquiry: Try [2H]C([2H])([2H])c1nnn(C)c1-c1cnc2c3ccc(S(C)(=O)=O)cc3n(C(c3cc(C)on3)C3CCOCC3)c2c1 (stereo not shown) [Example 331] next.
Return: < 5 nM

Enquiry: Try Cc1noc(C)c1-c1cnc2c3ccc(C(=O)O)cc3n(C(c3ccccc3)C3CCOCC3)c2c1 (stereo not shown) [Example 44] next.
Return: < 5 nM

Enquiry: Try Cc1nnn(C)c1-c1cnc2c3cc(C(=O)N4CC(C)(O)C4)ccc3n([C@H](c3ccccc3)C3CCOCC3)c2c1 [Example 427] next.
Return: < 5 nM

Enquiry: Try [2H]C([2H])([2H])c1nnn(C)c1-c1cnc2c3c(OC)cc(S(C)(=O)=O)cc3n(C(c3ncccc3F)C3CCC(F)(F)CC3)c2c1 (single isomer, unassigned) [Example 214] next.
Return: < 5 nM

Enquiry: Try COc1ccc(S(C)(=O)=O)c2c1c1ncc(-c3c(C)nnn3C)cc1n2[C@H](c1ccccc1F)C1CCOCC1 [Example 188] next.
Return: < 5 nM

Enquiry: Try [2H]C([2H])([2H])c1nnn(C)c1-c1cnc2c3cc(F)c(C(C)(C)O)cc3n(C(c3cc(OC)ccn3)C3CCOCC3)c2c1 (single isomer, unassigned) [Example 325] next.
Return: < 5 nM

Enquiry: Try Cc1noc(C)c1-c1cnc2c3ccc(C(C)(C)O)cc3n(C(c3ccccc3)C3CCOCC3)c2c1 (single isomer, unassigned) [Example 2] next.
Return: < 5 nM

Enquiry: Try [2H]C([2H])([2H])c1nnn(C)c1-c1cnc2c3c(OC)cc(S(C)(=O)=O)cc3n(C(c3ncccc3F)C3CCC(F)(F)CC3)c2c1 (single isomer, unassigned) [Example 213] next.
Return: < 5 nM

Enquiry: Try [2H]C([2H])([2H])c1nnn(C)c1-c1cnc2c3c(OC)cc(C(C)(C)O)cc3n(C(c3ccncc3F)C3CCOCC3)c2c1 (stereo not shown) [Example 347] next.
Return: < 5 nM

Enquiry: Try Cc1nnn(C)c1-c1cnc2c3c(C(=O)NC4CC4)cccc3n([C@H](c3ccccc3)C3CCOCC3)c2c1 [Example 151] next.
Return: < 5 nM

Enquiry: Try Cc1nnn(C)c1-c1cnc2c3cc(F)c(C(C)(O)C4CC4)c(F)c3n([C@H](c3ccccc3)C3CCOCC3)c2c1 (single isomer, unassigned) [Example 449] next.
Return: < 5 nM

Enquiry: Try [2H]C([2H])([2H])c1nnn(C)c1-c1cnc2c3ccc(C(C)(C)O)cc3n(C(c3ccccc3)C3CCC(F)(F)CC3)c2c1 (stereo not shown) [Example 204] next.
Return: < 5 nM
